# system.tested: hTLR9 (Homo sapiens, UniProt Q9NR96)
# Sequence (Q9NR96 26-1032): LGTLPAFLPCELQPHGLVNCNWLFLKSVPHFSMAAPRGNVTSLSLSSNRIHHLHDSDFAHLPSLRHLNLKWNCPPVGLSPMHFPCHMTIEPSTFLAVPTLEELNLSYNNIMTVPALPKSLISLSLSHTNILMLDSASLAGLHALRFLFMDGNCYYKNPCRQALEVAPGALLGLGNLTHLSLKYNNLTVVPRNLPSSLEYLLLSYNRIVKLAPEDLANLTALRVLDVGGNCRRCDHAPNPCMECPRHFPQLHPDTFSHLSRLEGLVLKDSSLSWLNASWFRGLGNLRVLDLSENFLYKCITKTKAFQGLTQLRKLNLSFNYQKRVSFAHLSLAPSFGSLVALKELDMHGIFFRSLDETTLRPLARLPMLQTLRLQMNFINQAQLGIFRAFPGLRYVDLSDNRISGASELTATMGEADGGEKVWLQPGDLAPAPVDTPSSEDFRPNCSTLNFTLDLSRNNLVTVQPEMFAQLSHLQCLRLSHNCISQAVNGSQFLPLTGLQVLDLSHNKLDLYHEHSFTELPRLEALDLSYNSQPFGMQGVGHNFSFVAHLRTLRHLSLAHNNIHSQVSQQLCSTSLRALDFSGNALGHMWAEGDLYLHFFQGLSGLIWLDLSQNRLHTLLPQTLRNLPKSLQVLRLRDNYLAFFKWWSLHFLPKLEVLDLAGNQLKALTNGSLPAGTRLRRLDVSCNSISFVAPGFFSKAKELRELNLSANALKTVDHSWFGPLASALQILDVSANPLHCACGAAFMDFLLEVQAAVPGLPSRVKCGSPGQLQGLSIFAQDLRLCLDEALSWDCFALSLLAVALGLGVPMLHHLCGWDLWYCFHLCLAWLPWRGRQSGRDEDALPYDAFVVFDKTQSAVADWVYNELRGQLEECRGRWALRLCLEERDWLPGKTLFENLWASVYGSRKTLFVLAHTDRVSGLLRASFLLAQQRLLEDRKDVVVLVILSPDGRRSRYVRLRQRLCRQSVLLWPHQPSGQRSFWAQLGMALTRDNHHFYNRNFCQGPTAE
# experiment.description: HEK293-Blue-hTLR-9 cells assay (SEAP reporter, ODN2006 stimulation)
# Type: cell-based
# Set-up: host or cells: HEK293 (HEK-Blue)
# assay.context: HEK293-Blue-hTLR9 cells, ODN2006, 20 hrs; read-out: HEK/hTLR9 IC50
endpoint.label: IC50 (nM)

compound | system.tested | reading.unit | recorded.measurement
C[C@@H]1CN(c2ccc(C#N)c3nccnc23)C[C@H](CN2CCN(c3cnc4c(c3)CNC4)CC2)O1 [Example 25] | hTLR9 (Homo sapiens, UniProt Q9NR96) | nM | 90
C[C@@H]1Cc2cnc(N3CCN(C[C@H]4CN(c5ccc(C#N)c6ncccc56)C[C@@H](C)O4)CC3)cc2CN1 (single isomer, unassigned) [Example 77] | hTLR9 (Homo sapiens, UniProt Q9NR96) | nM | 115
C[C@@H]1CN(c2ccc(C#N)c3nccnc23)C[C@H](CN2CCN(c3ccc4c(n3)CN[C@@H]4C)CC2)O1 (single isomer, unassigned) [Example 79] | hTLR9 (Homo sapiens, UniProt Q9NR96) | nM | 108
C[C@@H]1CN(c2ccc(C#N)c3ncccc23)C[C@H](CN2CCN(c3ccc4c(n3)[C@@H](C)NC4)CC2)O1 (single isomer, unassigned) [Example 65] | hTLR9 (Homo sapiens, UniProt Q9NR96) | nM | 81
C[C@@H]1CN(c2ccc(C#N)c3ncccc23)C[C@H](CN2CCN(c3ccc4c(n3)CN[C@H]4C)CC2)O1 (single isomer, unassigned) [Example 63] | hTLR9 (Homo sapiens, UniProt Q9NR96) | nM | 67
C[C@@H]1Cc2cc(N3CCN(C[C@H]4CN(c5ccc(C#N)c6ncccc56)C[C@@H](C)O4)CC3)ncc2CN1 (single isomer, unassigned) [Example 70] | hTLR9 (Homo sapiens, UniProt Q9NR96) | nM | 83

---

# system.tested: hTLR7 (Homo sapiens, UniProt Q9NYK1)
# Sequence (Q9NYK1 27-1049): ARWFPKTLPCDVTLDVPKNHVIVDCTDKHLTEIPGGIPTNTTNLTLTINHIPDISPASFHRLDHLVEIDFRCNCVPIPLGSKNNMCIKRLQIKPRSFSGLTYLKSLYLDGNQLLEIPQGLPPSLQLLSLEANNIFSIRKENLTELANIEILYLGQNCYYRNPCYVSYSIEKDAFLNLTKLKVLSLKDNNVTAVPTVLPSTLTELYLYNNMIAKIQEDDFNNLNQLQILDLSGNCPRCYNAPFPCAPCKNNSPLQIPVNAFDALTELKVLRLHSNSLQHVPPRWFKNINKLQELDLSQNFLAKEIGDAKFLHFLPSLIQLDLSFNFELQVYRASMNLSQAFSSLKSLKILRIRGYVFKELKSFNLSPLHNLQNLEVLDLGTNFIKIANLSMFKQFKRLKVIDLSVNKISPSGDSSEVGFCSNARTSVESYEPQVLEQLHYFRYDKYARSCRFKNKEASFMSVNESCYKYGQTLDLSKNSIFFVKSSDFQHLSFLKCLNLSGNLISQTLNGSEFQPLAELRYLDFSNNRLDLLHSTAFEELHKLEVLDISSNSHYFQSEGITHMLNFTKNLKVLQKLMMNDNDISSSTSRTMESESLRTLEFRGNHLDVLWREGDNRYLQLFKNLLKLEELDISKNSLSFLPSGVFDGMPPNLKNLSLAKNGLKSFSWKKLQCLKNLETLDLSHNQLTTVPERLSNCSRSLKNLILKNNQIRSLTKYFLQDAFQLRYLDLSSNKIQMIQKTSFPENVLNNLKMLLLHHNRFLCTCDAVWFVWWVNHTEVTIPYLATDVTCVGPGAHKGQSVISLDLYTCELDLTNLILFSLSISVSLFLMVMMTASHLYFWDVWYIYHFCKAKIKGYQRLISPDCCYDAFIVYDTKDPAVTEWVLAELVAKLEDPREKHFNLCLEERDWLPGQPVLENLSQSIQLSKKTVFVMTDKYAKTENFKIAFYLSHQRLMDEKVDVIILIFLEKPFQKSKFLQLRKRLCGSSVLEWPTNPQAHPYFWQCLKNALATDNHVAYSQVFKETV
# experiment.description: HEK293-Blue-hTLR-7 cells assay (SEAP reporter, R848 stimulation)
# Type: cell-based
# Design: host or cells: HEK293 (HEK-Blue)
# assay.context: HEK293-Blue-hTLR7 cells, R848, 20 hrs; read-out: HEK/hTLR7 IC50
# Experimental: A stable HEK293-Blue-hTLR-7 cell line was purchased from InvivoGen (Cat.#: hkb-htlr7, San Diego, California, USA). These cells were originally designed for studying the stimulation of human TLR7 by monitoring the activation of NF-κB. […] The cell culture supernatant SEAP reporter activity was determined using QUANTI-Blue™ kit (Cat.#: rep-qb1, Invivogen, San Diego, Ca, USA) at a wavelength of 640 nm, a detection medium that turns purple or blue in the presence of alkaline phosphatase. […]
pIC50: −log10 of the molar value.
endpoint.label: pIC50

molecule | recorded.measurement
CC1NCc2cc(N3CCN(C[C@H]4CN(c5ccc(C#N)c6ncccc56)C[C@@H](C)O4)CC3)ccc21 (stereo partly drawn) [Example 28] | 7.96

A. C[C@@H]1CN(c2ccc(C#N)c3ncccc23)C[C@H](CN2CCN(c3ccc4c(n3)CCNC4)CC2)O1 [Example 14]
B. [2H]c1nc2c(C#N)ccc(N3C[C@H](CN4CCN(c5ccc6c(n5)CN[C@H]6C)CC4)O[C@H](C)C3)c2nc1[2H] (single isomer, unassigned) [Example 96]
Prompt: Look at A and B . Which one has the lower recorded pIC50 number? Your answer should be the label of the entry you select.
Response: A
(A: 7.96, B: 8.40)
